Biological target: calmodulin (Homo sapiens)
Assay: calcium-dependent phosphodiesterase assay (calmodulin activity)
Type: biochemical
Conditions: comparison of IC50 for phosphodiesterase with IC50 for calmodulin
Square brackets hold non-standard residues; d marks the D form. Peptide text beside a SMILES is read from it.
Some compounds, each annotated with its measured SPECIFICITY.

Compound	Measured target	SPECIFICITY
CC[C@@H](C)[C@@H](NC(=O)[C@@H](CCCNC(=N)N)NC(=O)[C@@H](Cc1c[nH]c2ccccc12)NC(=O)[C@@H](CC(C)C)NC(C)=O)C(=O)N[C@H](CC(C)C)C(=O)N[C@H](CCCNC(=N)N)C(N)=O (Ac-[dL][dW][dR][dI][dL][dR]-NH2)	calmodulin (Homo sapiens)	> 42
CC[C@H](C)[C@H](NC(=O)[C@H](CCCNC(=N)N)NC(=O)[C@H](Cc1c[nH]c2ccccc12)NC(=O)[C@H](CC(C)C)NC(C)=O)C(=O)N[C@@H](CC(C)C)C(=O)N[C@@H](Cc1c[nH]c2ccccc12)C(N)=O [Ac-Leu-Trp-Arg-Ile-Leu-Trp-NH2] (Ac-LWRILW-NH2)	calmodulin (Homo sapiens)	> 227
CC[C@H](C)[C@H](NC(=O)[C@H](CCCNC(=N)N)NC(=O)[C@H](Cc1c[nH]c2ccccc12)NC(=O)[C@H](CC(C)C)NC(C)=O)C(=O)N[C@@H](CC(C)C)C(=O)N[C@@H](CCCNC(=N)N)C(N)=O [Ac-Leu-Trp-Arg-Ile-Leu-Arg-NH2] (Ac-LWRILR-NH2)	calmodulin (Homo sapiens)	> 69
CC(=O)N[C@@H](CC(C)C)C(=O)N[C@@H](Cc1c[nH]c2ccccc12)C(=O)N[C@@H](CCCNC(=N)N)C(=O)N[C@@H](Cc1c[nH]cn1)C(=O)N[C@@H](CC(C)C)C(=O)N[C@@H](Cc1c[nH]c2ccccc12)C(N)=O [Ac-Leu-Trp-Arg-His-Leu-Trp-NH2] (Ac-LWRHLW-NH2)	calmodulin (Homo sapiens)	> 182

Data origin: patent US5840697A
